The origin of these recorded values is patent US20260008852A1.

studySystem: T1, His-tagged human B7-H3 (human, UniProt Q5ZPR3-2 29-245, limits assumed)
T1 construct: Bought His-tagged protein coated on the ELISA plate; also called hu B7-H3; CD276
T1 sequence (looked up): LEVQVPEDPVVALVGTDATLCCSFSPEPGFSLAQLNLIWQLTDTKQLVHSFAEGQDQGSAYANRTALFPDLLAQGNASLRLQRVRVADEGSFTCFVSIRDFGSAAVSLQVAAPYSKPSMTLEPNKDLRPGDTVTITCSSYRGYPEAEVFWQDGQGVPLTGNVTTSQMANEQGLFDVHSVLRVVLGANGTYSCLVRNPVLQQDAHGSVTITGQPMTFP
procedureSummary: ELISA, coated His-tagged antigen, scFv-Fc 1 ug/ml
Each item that follows carries a reported ELISA OD450 @ 1 ug/ml.
The answer is to be given in OD450; state only the numeric part.

1. 40579p1.H6 (scFv, V domains shown, Tested as scFv-Fc (Expi293 supernatant)) VH: EVQLLESGGGLVQPGGSLRLSCAASGFTVNNAWMSWVRQAPGKGLEWVSAISYGGSIYYADSVKGRFTISRDNSKNTLYLQMNSLRAEDTAVYYCAKHRSTTYNGMDVWGQGTTVTVSS VL: EIVLTQSPGTLSLSPGERATLSCRASQSVGSFLAWYQQKPGQAPRLLIYGANTRAAGIPDRFRGSGNGTDFTLTISSLQSEDFAVYYCQQYYDWPPLTFGGGTKVEIK
1.49

Read the next record carefully.
Prompt: Give the value of ELISA OD450 @ 1 ug/ml reported for the following: 40633p1.2.G9 (scFv, V domains shown, Tested as scFv-Fc (Expi293 supernatant)) VH: EVQLLESGGGLLQPGGSLRLSCAASGFSFSSYGMHWVRQAPGKGLEWVAAINSDGSRIYYADSVEGRFTISRDNSKNTLYLQMNSLRAEDTAVYYCTKYYYHYAMDVWGQGTTVTVSS VL: QSVLTQPPSASGTPGQRVTISCSGSRSDIGATTVNWYQQLPGTAPKLLIYQSHLRPSGVPDRFSGSKSGTSASLAISGLQSEDEADYYCASWDASLNTWVFGGGTKLTVL
Response: 2.08
